Sourced from patent US20260008852A1

Target: T1, His-tagged human B7-H3 (human, UniProt Q5ZPR3-2 29-245, limits assumed)
T1 construct: Bought His-tagged protein coated on the ELISA plate; also called hu B7-H3; CD276
T1 sequence (looked up): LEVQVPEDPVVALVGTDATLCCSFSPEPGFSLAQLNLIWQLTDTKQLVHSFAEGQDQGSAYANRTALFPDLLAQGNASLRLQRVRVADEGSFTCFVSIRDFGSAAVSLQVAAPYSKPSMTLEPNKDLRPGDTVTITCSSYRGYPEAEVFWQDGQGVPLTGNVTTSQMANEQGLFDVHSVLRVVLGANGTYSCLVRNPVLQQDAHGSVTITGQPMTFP
Assay: ELISA OD450 on hu B7-H3 over OD450 on mu B7-H3
Reported hu:mu ratio values for the following binders.
Please respond with just the number, no unit label.

Worked examples follow.
>>> endpoint_result("40633p1.1.D11 (scFv, V domains shown, Tested as scFv-Fc (Expi293 supernatant)) VH: EVQLLESGGGLVQPGGSLRLSCAASGFTFRSYAMSWVRQAPGKGLEWVAYIGSSGGTTYYADSVKGRFTISRDNSKNTLYLQMNSLRAEDTAVYYCVKESYYYMDVWGQGTTVTVSS VL: QSVLTQPPSASGTPGQRVTISCSATISNIDINRVSWYQQLPGTAPKLLIFNSQRPSGVPDRFSGSKSGTSASLAISGLQSEDEADYYCATWDDSLNSWVFGGGTKLTVL")
1.18
>>> endpoint_result("40511p1.1.G1 (scFv, V domains shown, Tested as scFv-Fc (Expi293 supernatant)) VH: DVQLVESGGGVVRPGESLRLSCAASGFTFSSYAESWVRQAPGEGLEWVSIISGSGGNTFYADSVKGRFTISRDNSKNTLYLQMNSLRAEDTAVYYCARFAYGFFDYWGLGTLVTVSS VL: EIVLTQSPGTLSVSPGEGATLSCRASQTVGSKLAWYQQKPGQPPSLLIYDASTRATGIPDRFSGSGSGTDFTLTISSLQSEDFAVYYCQQYRNWPPLTFGGGTKVEIK")
1.32

Consider the additional binder presented here.
## Input Which hu:mu ratio reading was recorded for the binder 40579p1.G1 (scFv, V domains shown, Tested as scFv-Fc (Expi293 supernatant)) VH: EVQLLESGGGLVQPGGSLRLSCAASGFNFSSYWMSWVRQAPGKGLEWVSGISISYGGNAYYADSVKGRFTVSRDNSKNTLYLQMNSLRAEDTAVYYCGRDRSPYQYRSMDVWGQGTTVTVSS VL: EIVLTQSPGTLSLSPGERATLSCRASQSIRSDLAWYQQKPGQAPRLLIYGASSRATGIPARFSGSGSGTEFTLTISSLQSEDFAVYYCQQYNNWPPLTFGGGTKVEIK ?
## Output 0.966
